Values compiled from paper PMC4552634.

Recorded % Inhibition by entry
tested on: P. falciparum stage V gametocytes; parameters: BacTiter-Glo ATP luminescence viability of purified stage V gametocytes in 384-well plates, per cent inhibition versus DMSO; settings: 48 h, 5 µM; inhibitor
Among all 13,000 compounds or so, about 3,200 (25%) showed an effect of 50% or more. This is one part of the list.
Supply the numeric figure in %, leaving out any unit text.

{"columns": ["Molecule", "Measured"],
 "data": [
  ["COc1cccc(C2(c3cccc(OC)c3)N=C(N)N(CCCc3ccccc3)C2=O)c1 [TCMDC-136492]", -28.16]
]}

Let me check: CCOc1cc(-c2nnc3[nH]c(=O)n(C)c(=O)c3n2)ccc1OC(C)C [TCMDC-124558] , system P. falciparum stage V gametocytes, measured % Inhibition is -22.82

Let me check: O=C(Nc1ccc(OC2CCN(Cc3ccc(F)cc3)C2)c(Cl)c1)c1ccc(F)cc1 (stereo not shown) [TCMDC-133763] , system P. falciparum stage V gametocytes, measured % Inhibition is 12.34

Let me check: Cc1cccc2[nH]c(-c3cccc(-c4cccc(NC(=O)CN5CCN(C)CC5)c4)c3)nc12 [TCMDC-136982] , system P. falciparum stage V gametocytes, measured % Inhibition is 18.86
